Measured z-score of individual entries
protocol.summary: basal CRE-LacZ reporter activity in PC12 – cell-based, unstimulated, primary screen (AID 1145)
study.conditions: no forskolin, luminescence, 4.5 h, higher = more signal, called active from +8 up or from −8 down
The source made the active and inactive calls.

Some solved cases for reference:
{"columns": ["compound", "assay.metric", "observed.result"],
 "data": [
  ["O=C(C=C(CC(O)c1cccc(Cl)c1)OCCF)OCCF (stereo not given)", "z-score", "0.481 (inactive)"],
  ["COC(=O)[C@@]1(Cc2ccccc2)[C@H]2c3cc(C(=O)N(C)C)n(Cc4ccccn4)c3C[C@H]2CN1C(=O)c1ccccc1", "z-score", "1.73 (inactive)"],
  ["CC(C)(C)OC(=O)CC[C@]1(C(=O)O)COC(c2ccc(OCCCO)cc2)=N1", "z-score", "0.694 (inactive)"],
  ["CCOC(=O)C1=CCC(c2cccc(Cl)c2)O1 (stereo not given)", "z-score", "-0.471 (inactive)"]
]}

Quick note, z-score for CC(C)C[C@@H]1NC(=O)[C@@]23C(=O)N[C@@H](Cc4ccccc4)C2[C@H](C)[C@@]2(C)O[C@H]2C3/C=C/C/C=C\CNC(=O)[C@@H]2CCCN2C1=O (stereo not given in full) landed at 1.12 (inactive)

Quick note, z-score for N#Cc1ccc(NN2C(C(O)c3ccco3)C=CC3C(=O)N(c4ccccc4)C(=O)C32)cc1 (stereo not given) landed at -0.136 (inactive)

These data points were gathered from PubChem BioAssay.
